experiment: Inhibition of human alpha-glucosidase expressed in Saccharomyces cerevisiae using p-nitophenyl-alpha-glucopyranoside as substrate pretreated with substrate for 15 mins followed by enzyme addition measured after 15 mins
pIC50: −log10 of the molar value.
measured.attribute: pIC50

compound	value.measured
COC(=O)c1cc(O)cc(OC)c1Oc1c(Cl)c(C)c(Cl)c(O)c1C(=O)OC [METYL DICHLOROASTERRATE]	4.05
COc1cc(O)cc(C(=O)O)c1Oc1cc(C)cc(O)c1C(=O)O	5.00
CCOC(=O)[C@@]1(O)OC(=O)C(Cc2ccc3c(c2)CCC(C)(C)O3)=C1c1ccc(O)cc1	4.36
Cc1c(O)c(O)c(O)c(C=O)c1-c1cc2c(C=O)c(C)c(O)c(O)c2o1	4.48

Provenance of the data: ChEMBL document CHEMBL4002578
